test system: IL-8 receptors on neutrophils; test: Inhibition of 125I-labeled IL-8 binding to human neutrophils; conditions: 100 μM peptide, 10^−12 M IL-8; hexamer RRWWCX series, first screen
Where no end group is shown, it is not given here.
Rule: % INHIB. (IL-8 binding to neutrophils) of 80% or more gives rule met; anything lower gives rule not met.

substance: RRWWCG
classification: rule met

Task: Hi, just wondering whether RRWWCP shows % INHIB. (IL-8 binding to neutrophils) of 80% or higher.
Output: rule met

Task: Moving on to the next substance: RRWWCQ
Output: rule not met

Task: And the next one, RRWWCL ?
Output: rule met
